Provenance of the data: PubChem BioAssay (NCI)

The entries below come with measured TGI values attached.
Test system: SK-MEL-5 melanoma
protocol: NCI tumour cell line growth inhibition, 48 h

| molecule | TGI |
| --- | --- |
| CNC(=O)CN(CC(N)=O)C(N)=O | > 100 µM |
| N[C@@H]1CCCC[C@@H]1N.O=P([O-])([O-])CN(CP(=O)([O-])[O-])CP(=O)([O-])[O-].[Pt+2] | > 100 µM |
| S=C(NCc1ccccc1)N/N=C/c1ccccn1 | > 93.6 µM |
| CC(=O)N(Cc1ccccc1)c1ccccc1I(=O)=O | > 100 µM |
| Cc1[nH]c(=O)[nH]c(=S)c1C(=O)Nc1cccc2cc3ccccc3cc12 | > 100 µM |
| CCCCCCCCCCCCCCCCOC(=O)c1cc(O)cc(C(=O)OCCCCCCCCCCCCCCCC)c1 | > 100 µM |
| CCOC(=O)C(NC(=O)c1[nH]cnc1/N=N/N(C)C)C(C)C (stereo not drawn) | > 100 µM |
| CC1=C(C(=O)Nc2ccc(Cl)c(Cl)c2)C(c2ccccc2O)NC(=O)N1 (stereo not drawn) | > 50 µM |
| COc1c(C)c(C/C=C(\C)CC/C=C(\C)CCC=C(C)C)c(OC)c(OC)c1OC | > 100 µM |
| CCOC(=O)c1cn(C)c(=S)n2c1nc1ccccc12 | > 100 µM |
| S=c1nc(-c2ccnc(-c3nc(=S)[nH][nH]3)c2)[nH][nH]1 | > 100 µM |
| CCOC(=O)C(=O)C(=O)NN(C)C1=NCCN1 | > 100 µM |
| COc1cnc2cc(C(=O)O)c3ccccc3c2c1 | > 100 µM |
